Hello, the source for this data is ChEMBL document CHEMBL1159295, in case you need it.

Listed compounds paired with reported LC50
system: Artemia salina; test: Toxicity in Artemia salina; format: organism-based; conditions: in vivo

Compound	LC50 / ppm
CC(C)=CCC/C(C)=C/CC/C(C)=C/CC/C(C)=C/CC/C(C)=C/CC/C(C)=C/CC/C(C)=C/CC/C(C)=C/Cc1cc(OS(=O)(=O)[O-])ccc1O.[Na+]	0.04
CC(C)=CCC/C(C)=C/CC/C(C)=C/CC/C(C)=C/CC/C(C)=C/CC/C(C)=C/CC/C(C)=C/CCC1(C)C=Cc2cc(O)ccc2O1 (stereo unspecified)	1.45
CC(C)=CCC/C(C)=C/CC/C(C)=C/CC/C(=C/CC/C(C)=C/CC/C(C)=C/CC/C(C)=C/CC/C(C)=C/Cc1cc(OS(=O)(=O)[O-])ccc1O)CO.[Na+]	0.05
CC(C)=CCC/C(C)=C/CC/C(C)=C/CC/C(C)=C/CC/C(C)=C/CC/C(C)=C/CC/C(C)=C/Cc1cc(OS(=O)(=O)[O-])ccc1O.[Na+]	0.02
CC(C)=CCC/C(C)=C/CC/C(C)=C/CC/C(C)=C/CC/C(C)=C/CC/C(C)=C/CC/C(C)=C/CC/C(C)=C/Cc1cc(O)ccc1O	0.98
CC(C)=CCC/C(C)=C/CC/C(C)=C/CC/C(=C/CC/C(C)=C/CC/C(C)=C/CC/C(C)=C/CCC1(C)C=Cc2cc(O)ccc2O1)CO (stereo unspecified)	32.3

###

tested on: Artemia salina; experiment: Toxicity in Artemia salina; assay type: organism-based; conditions: in vivo
Property: LC50 (ppm)

Compound	System name	Result
CC(C)=CCC/C(C)=C/CC/C(C)=C/CC/C(C)=C/CC/C(C)=C/CC/C(C)=C/CCC1(C)C=Cc2cc(O)ccc2O1 (stereo not drawn)	Artemia salina	1.15
CC(C)=CCC/C(C)=C/CC/C(C)=C/CC/C(C)=C/CC/C(C)=C/CC/C(C)=C/CC/C(C)=C/Cc1cc(O)ccc1O	Artemia salina	0.91
CC(C)=CCC/C(C)=C/CC/C(C)=C/CC/C(=C/CC/C(C)=C/CC/C(C)=C/CC/C(C)=C/CC/C(C)=C/Cc1cc(O)ccc1O)CO	Artemia salina	0.35

###

tested on: Micrococcus luteus; assay: Antibacterial activity against Micrococcus luteus DSM 348 at 100 ug/disk by diffusion test; format: functional, organism-based
Active and inactive are the calls of the source. No cut-off for these calls is given here.

Molecule	Activity
CC(C)=CCC/C(C)=C/CC/C(C)=C/CC/C(=C/CC/C(C)=C/CC/C(C)=C/CC/C(C)=C/CC/C(C)=C/Cc1cc(OS(=O)(=O)[O-])ccc1O)CO.[Na+]	inactive
CC(C)=CCC/C(C)=C/CC/C(C)=C/CC/C(=C/CC/C(C)=C/CC/C(C)=C/CC/C(C)=C/CCC1(C)C=Cc2cc(O)ccc2O1)CO (configuration not stated)	inactive
CC(C)=CCC/C(C)=C/CC/C(C)=C/CC/C(C)=C/CC/C(C)=C/CC/C(C)=C/CCC1(C)C=Cc2cc(O)ccc2O1 (configuration not stated)	inactive
CC(C)=CCC/C(C)=C/CC/C(C)=C/CC/C(C)=C/CC/C(C)=C/CC/C(C)=C/CC/C(C)=C/CCC1(C)C=Cc2cc(O)ccc2O1 (configuration not stated)	inactive
CC(C)=CCC/C(C)=C/CC/C(C)=C/CC/C(=C/CC/C(C)=C/CC/C(C)=C/CC/C(C)=C/CC/C(C)=C/Cc1cc(O)ccc1O)CO	inactive
CC(C)=CCC/C(C)=C/CC/C(C)=C/CC/C(C)=C/CC/C(C)=C/CC/C(C)=C/CC/C(C)=C/Cc1cc(OS(=O)(=O)[O-])ccc1O.[Na+]	inactive
CC(C)=CCC/C(C)=C/CC/C(C)=C/CC/C(C)=C/CC/C(C)=C/CC/C(C)=C/CC/C(C)=C/CC/C(C)=C/Cc1cc(OS(=O)(=O)[O-])ccc1O.[Na+]	inactive

###

test system: Gambusia affinis; experiment: Toxicity in Gambusia affinis; format: organism-based; details: in vivo
Listed compounds paired with reported LC50

Compound	LC50
CC(C)=CCC/C(C)=C/CC/C(C)=C/CC/C(=C/CC/C(C)=C/CC/C(C)=C/CC/C(C)=C/CC/C(C)=C/Cc1cc(O)ccc1O)CO	> 100 ppm
CC(C)=CCC/C(C)=C/CC/C(C)=C/CC/C(=C/CC/C(C)=C/CC/C(C)=C/CC/C(C)=C/CC/C(C)=C/Cc1cc(OS(=O)(=O)[O-])ccc1O)CO.[Na+]	19.6 ppm
CC(C)=CCC/C(C)=C/CC/C(C)=C/CC/C(C)=C/CC/C(C)=C/CC/C(C)=C/CC/C(C)=C/Cc1cc(O)ccc1O	> 100 ppm
CC(C)=CCC/C(C)=C/CC/C(C)=C/CC/C(C)=C/CC/C(C)=C/CC/C(C)=C/CCC1(C)C=Cc2cc(O)ccc2O1 (centres undefined)	> 100 ppm
CC(C)=CCC/C(C)=C/CC/C(C)=C/CC/C(C)=C/CC/C(C)=C/CC/C(C)=C/CC/C(C)=C/Cc1cc(OS(=O)(=O)[O-])ccc1O.[Na+]	15.6 ppm
CC(C)=CCC/C(C)=C/CC/C(C)=C/CC/C(=C/CC/C(C)=C/CC/C(C)=C/CC/C(C)=C/CCC1(C)C=Cc2cc(O)ccc2O1)CO (centres undefined)	> 100 ppm
CC(C)=CCC/C(C)=C/CC/C(C)=C/CC/C(C)=C/CC/C(C)=C/CC/C(C)=C/CC/C(C)=C/CCC1(C)C=Cc2cc(O)ccc2O1 (centres undefined)	> 100 ppm
CC(C)=CCC/C(C)=C/CC/C(C)=C/CC/C(C)=C/CC/C(C)=C/CC/C(C)=C/CC/C(C)=C/CC/C(C)=C/Cc1cc(OS(=O)(=O)[O-])ccc1O.[Na+]	16.9 ppm
CC(C)=CCC/C(C)=C/CC/C(C)=C/CC/C(C)=C/CC/C(C)=C/CC/C(C)=C/CC/C(C)=C/CC/C(C)=C/Cc1cc(O)ccc1O	> 100 ppm

###

test system: Candida albicans; experiment: Antifungal activity against Candida albicans DSM 1665 at 100 ug/disk by diffusion test; assay type: functional, organism-based
Calls of active or inactive are those of the source. The calls are words filed in the database; no cut-off is given here.

Compound	Activity
CC(C)=CCC/C(C)=C/CC/C(C)=C/CC/C(C)=C/CC/C(C)=C/CC/C(C)=C/CC/C(C)=C/CC/C(C)=C/Cc1cc(OS(=O)(=O)[O-])ccc1O.[Na+]	inactive
CC(C)=CCC/C(C)=C/CC/C(C)=C/CC/C(C)=C/CC/C(C)=C/CC/C(C)=C/CC/C(C)=C/CCC1(C)C=Cc2cc(O)ccc2O1 (centres undefined)	inactive
CC(C)=CCC/C(C)=C/CC/C(C)=C/CC/C(=C/CC/C(C)=C/CC/C(C)=C/CC/C(C)=C/CC/C(C)=C/Cc1cc(O)ccc1O)CO	inactive
CC(C)=CCC/C(C)=C/CC/C(C)=C/CC/C(C)=C/CC/C(C)=C/CC/C(C)=C/CC/C(C)=C/Cc1cc(OS(=O)(=O)[O-])ccc1O.[Na+]	inactive

###

system: Candida albicans; experiment: Antifungal activity against Candida albicans DSM 1665 at 100 ug/disk by diffusion test; assay type: functional, organism-based
Active and inactive are the calls of the source. The rule behind the calls is not given here.

Compound	Activity
CC(C)=CCC/C(C)=C/CC/C(C)=C/CC/C(C)=C/CC/C(C)=C/CC/C(C)=C/CCC1(C)C=Cc2cc(O)ccc2O1 (stereo not drawn)	inactive
CC(C)=CCC/C(C)=C/CC/C(C)=C/CC/C(=C/CC/C(C)=C/CC/C(C)=C/CC/C(C)=C/CCC1(C)C=Cc2cc(O)ccc2O1)CO (stereo not drawn)	inactive
CC(C)=CCC/C(C)=C/CC/C(C)=C/CC/C(=C/CC/C(C)=C/CC/C(C)=C/CC/C(C)=C/CC/C(C)=C/Cc1cc(OS(=O)(=O)[O-])ccc1O)CO.[Na+]	inactive
